System: Fusarium solani
test: Antifungal activity against Fusarium solani assessed as inhibition of mycelium growth after 1 week
Type: functional, organism-based
test_settings: Fusarium solani, 168 h; read-out: IC50
Binary label based on IC50 with cut-off 40 µg/mL: below gives rule met, not below gives rule not met.

Request: # strict comparison: is reported IC50 < 40 µg/mL? input = Cc1cc(O)no1
Result: rule met

Request: Cn1c(CCl)nc2ccccc21
Result: rule not met

Request: CC(=O)c1cccc(OCc2nc3ccccc3n2C)c1
Result: rule not met

Request: CC(=O)c1ccccc1OCc1nc2ccccc2n1C
Result: rule not met

Request: Cn1c(COc2ccc3c(c2)OCO3)nc2ccccc21
Result: rule not met

Request: Cn1c(CCl)nc2cc([N+](=O)[O-])ccc21
Result: rule met

Request: Cn1c(COc2ccccc2)nc2ccccc21
Result: rule met

Request: CCOC(=O)c1ccc(OCc2nc3ccccc3n2C)cc1
Result: rule not met

Request: Cn1c(COc2ccc(Cl)cc2)nc2ccccc21
Result: rule not met

Request: Cn1c(COc2ccc(F)cc2)nc2ccccc21
Result: rule met

Data credit: ChEMBL document CHEMBL3045720
